molecular target: Recombinant STAT6 protein (STAT6(W123-T658)) (Homo sapiens); construct: Recombinant STAT6 protein (STAT6(W123-T658)); assay: STAT6 Fluorescence Polarization (FP) Assay; details: STAT6(W123-T658) 250 nM, probe 5-FAM-ApYKPFQDLI-NH2 2 nM, 45-minute incubation
Sequence (P42226 123-658): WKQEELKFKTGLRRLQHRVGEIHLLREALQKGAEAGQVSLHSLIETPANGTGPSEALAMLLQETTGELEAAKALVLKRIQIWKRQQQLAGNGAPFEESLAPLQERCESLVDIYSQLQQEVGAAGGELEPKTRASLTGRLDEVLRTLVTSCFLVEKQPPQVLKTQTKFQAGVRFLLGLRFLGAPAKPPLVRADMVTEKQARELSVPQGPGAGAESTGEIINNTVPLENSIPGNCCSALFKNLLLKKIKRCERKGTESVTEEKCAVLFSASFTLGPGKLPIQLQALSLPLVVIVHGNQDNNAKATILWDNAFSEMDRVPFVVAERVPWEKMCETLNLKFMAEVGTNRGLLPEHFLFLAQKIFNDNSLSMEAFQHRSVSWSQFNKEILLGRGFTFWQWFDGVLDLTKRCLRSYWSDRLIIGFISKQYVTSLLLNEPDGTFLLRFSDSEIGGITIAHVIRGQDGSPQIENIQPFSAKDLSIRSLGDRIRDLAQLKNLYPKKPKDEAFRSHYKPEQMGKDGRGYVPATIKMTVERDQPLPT
pIC50: −log10 of the molar value.
Listing of recorded pIC50 by entry.

{"Compound": "COC1CCN(C2CCN(C(=O)[C@@H]3CC[C@@H]4CCN(C(C)=O)C[C@H](NC(=O)c5cc6cc(C(F)(F)P(=O)(O)O)ccc6s5)C(=O)N43)C2)CC1 (stereo partly drawn) [Compound 83]", "pIC50": "4.52 to 5.52"}
{"Compound": "O=C(N[C@H]1CNCC[C@H]2CC[C@@H](C(=O)N3CC(C(=O)N4CCOCC4)C3)N2C1=O)c1cc2cc(C(F)(F)P(=O)(O)O)ccc2s1 [Compound 256]", "pIC50": "4.52 to 5.52"}
{"Compound": "O=C(N[C@H]1CN(Cc2ccn3ccnc3c2)CC[C@H]2CC[C@@H](C(=O)N3CC(c4cccnc4)C3)N2C1=O)c1cc2cc(C(F)(F)P(=O)(O)O)ccc2s1 [Compound 273]", "pIC50": "4.52 to 5.52"}
{"Compound": "CCC(=O)N(C)[C@@H]1CCN(C(=O)[C@@H]2CC[C@@H]3CCN(C(C)=O)C[C@H](NC(=O)c4cc5cc(C(F)(F)P(=O)(O)O)ccc5[nH]4)C(=O)N32)C1 [Compound 23]", "pIC50": "5.52 to 6.52"}
{"Compound": "CC(=O)N1CC[C@H]2CC[C@@H](C(=O)N3CC(c4ccccc4)C3)N2C(=O)[C@@H](NC(=O)c2cc3cc(C(F)(F)P(=O)(O)O)ccc3[nH]2)C1 [Compound 100]", "pIC50": "5.52 to 6.52"}
{"Compound": "Cc1ccc2onc(C(=O)N3CC[C@H]4CC[C@@H](C(=O)N5C(=O)N(c6cccnc6)C(=O)C56CC6)N4C(=O)[C@@H](NC(=O)c4ccc5ccc([C@H](F)P(=O)(O)O)cc5c4)C3)c2c1 [Compound 386]", "pIC50": "≥ 6.52"}
{"Compound": "CC(=O)N1CC[C@H]2CC[C@@H](C(=O)N(C)c3ccc(C(C)(C)CO)cc3)N2C(=O)[C@@H](NC(=O)c2cc3cc(C(F)(F)P(=O)(O)O)ccc3s2)C1 [Compound 156]", "pIC50": "5.52 to 6.52"}
{"Compound": "CC(=O)N1CC[C@H]2CC[C@@H](C(=O)N3CCC[C@H]3Cc3ccccc3)N2C(=O)[C@@H](NC(=O)c2cc3cc(C(F)(F)P(=O)(O)O)ccc3[nH]2)C1 [Compound 163]", "pIC50": "5.52 to 6.52"}
{"Compound": "CCN1CC[C@H](NC(=O)c2cc3cc(C(F)(F)P(=O)(O)O)ccc3s2)C(=O)N2[C@H](CC[C@H]2C(=O)N2CC(c3cccnc3)C2)C1 [Compound 226]", "pIC50": "5.52 to 6.52"}

* * *

Listing of recorded pIC50 by entry.
target: Recombinant STAT3 protein (STAT3(G127-I722)) (Homo sapiens, UniProt P40763); construct: Recombinant STAT3 protein (STAT3(G127-I722)); assay: STAT3 Fluorescence Polarization (FP) Assay; details: STAT3(G127-I722) 25 nM, probe 5-FAM-GpYLPQTV-NH2 2 nM, 45-minute incubation
Sequence (P40763 127-722): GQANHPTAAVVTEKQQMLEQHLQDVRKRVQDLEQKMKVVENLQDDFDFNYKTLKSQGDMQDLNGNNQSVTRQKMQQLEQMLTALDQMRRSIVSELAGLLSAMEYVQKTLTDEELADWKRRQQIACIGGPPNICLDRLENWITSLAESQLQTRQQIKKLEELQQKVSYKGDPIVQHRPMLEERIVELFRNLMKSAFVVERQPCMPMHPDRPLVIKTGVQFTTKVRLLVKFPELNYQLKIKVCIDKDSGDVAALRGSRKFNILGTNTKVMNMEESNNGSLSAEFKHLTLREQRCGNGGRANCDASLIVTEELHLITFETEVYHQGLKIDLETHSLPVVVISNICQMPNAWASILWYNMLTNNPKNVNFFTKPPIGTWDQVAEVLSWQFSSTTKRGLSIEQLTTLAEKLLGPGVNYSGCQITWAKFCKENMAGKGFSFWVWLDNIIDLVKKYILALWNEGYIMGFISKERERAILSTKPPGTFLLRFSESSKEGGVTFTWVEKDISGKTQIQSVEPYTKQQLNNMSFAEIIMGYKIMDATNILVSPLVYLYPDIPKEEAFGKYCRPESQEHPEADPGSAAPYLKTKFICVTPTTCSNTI
pIC50: −log10 of the molar value.

{"Compound": "CC(=O)N1CC[C@H]2CC[C@@H](C(=O)N(C)c3ccc(C(F)F)cc3)N2C(=O)[C@@H](NC(=O)c2cc3cc(C(F)(F)P(=O)(O)O)ccc3s2)C1 [Compound 202]", "pIC50": "5.00 to 6.00"}
{"Compound": "CC(=O)N1CC[C@H]2CC[C@@H](C(=O)N3CC(C(=O)N4CCCCC4)C3)N2C(=O)[C@@H](NC(=O)c2cc3cc(C(F)(F)P(=O)(O)O)ccc3[nH]2)C1 [Compound 128]", "pIC50": "6.00 to 7.00"}
{"Compound": "CC(=O)N1CC[C@H]2CC[C@@H](C(=O)N(C)c3ccc4oncc4c3)N2C(=O)[C@@H](NC(=O)c2cc3cc(C(F)(F)P(=O)(O)O)ccc3s2)C1 [Compound 49]", "pIC50": "5.00 to 6.00"}
{"Compound": "CC(=O)N1CC[C@H]2CC[C@@H](C(=O)N(C)c3ccccc3)N2C(=O)[C@@H](NC(=O)c2cc3cc(C(F)(F)P(=O)(O)O)ccc3[nH]2)C1 [Compound 30]", "pIC50": "5.00 to 6.00"}
{"Compound": "CC(=O)N1CC[C@H]2CC[C@@H](C(=O)N[C@H]3CN(C(C)=O)C[C@@H]3O)N2C(=O)[C@@H](NC(=O)c2cc3cc(C(F)(F)P(=O)(O)O)ccc3s2)C1 [Compound 182]", "pIC50": "6.00 to 7.00"}

The measured values listed here are drawn from patent US20250179103A1.
